# Tested on: DLD1
# Experiment Summary: cell viability (CellTiter-Glo) relative to plate median (fraction of plate median); higher = more viable cells
# Assay Context: 5 µM; treatment time 24 h; reporter: 7TFP

Compound	cell viability
OCC(O)C(O)C(O)C(O)C(O)CO (centres undefined)	1.05
COC(=O)[C@@H]1OC(=O)C2OC23[C@@]1(C)CCC1[C@]2(C)C(C[C@@H](O)[C@]13C)C(C)(C)[C@H](OC(C)=O)C[C@@H]2OC(C)=O (some centres undefined)	1.01
CCN(CC)CCOC(=O)C(Cc1cccc2ccccc12)CC1CCCO1 (centres undefined)	1.09
COC1=C(OC)C(=O)C(C/C=C(\C)CC/C=C(\C)CC/C=C(\C)CC/C=C(/C)CC/C=C(\C)CC/C=C(\C)CC/C=C(\C)CC/C=C(\C)CC/C=C(\C)CCC=C(C)C)=C(C)C1=O	1.02

====

# Tested on: HCT116
# Experiment Summary: cell viability (CellTiter-Glo) relative to plate median (fraction of plate median); higher = more viable cells
# Assay Context: 10 µM; treatment time 24 h; reporter: TCF4/Wnt
Structures can show the parent of a compound that is named as a salt.
Metric Name: cell viability

Compound	Target Desc	Metric Name	Quantitative Result
CN(c1ncccc1CNc1nc(Nc2ccc3c(c2)CC(=O)N3)ncc1C(F)(F)F)S(C)(=O)=O	HCT116	cell viability	0.698
COc1cc(Nc2c(C#N)cnc3cc(OCCCN4CCN(C)CC4)c(OC)cc23)c(Cl)cc1Cl [Bosutinib (SKI-606)]	HCT116	cell viability	0.864
COc1cc2c(Oc3ccc4[nH]c(C)cc4c3F)ncnc2cc1OCCCN1CCCC1	HCT116	cell viability	0.658
CO[C@H]1C[C@@H]2CC[C@@H](C)[C@@](O)(O2)C(=O)C(=O)N2CCCC[C@H]2C(=O)O[C@H]([C@H](C)C[C@@H]2CC[C@@H](OP(C)(C)=O)[C@H](OC)C2)CC(=O)[C@H](C)/C=C(\C)[C@@H](O)[C@@H](OC)C(=O)[C@H](C)C[C@H](C)/C=C/C=C/C=C/1C [Deforolimus (Ridaforolimus)]	HCT116	cell viability	0.979
O=C1NC(=O)/C(=C/c2ccc(-c3ccc(F)cc3O)o2)S1	HCT116	cell viability	1.19
O=C1NC(=O)[C@@H](c2cn3c4c(cccc24)CCC3)[C@@H]1c1c[nH]c2ccccc12 [ARQ 197 (Tivantinib)]	HCT116	cell viability	0.593
COc1cc(Nc2ncc3c(n2)-c2ccc(Cl)cc2C(c2c(F)cccc2OC)=NC3)ccc1C(=O)O	HCT116	cell viability	0.954
Clc1ccc(Nc2nnc(Cc3ccncc3)c3ccccc23)cc1 [Vatalanib dihydrochloride (PTK787)]	HCT116	cell viability	1.08
COc1cc2nccc(Oc3ccc(NC(=O)C4(C(=O)Nc5ccc(F)cc5)CC4)cc3)c2cc1OC [XL-184 free base (Cabozantinib)]	HCT116	cell viability	1.09
CCC(=O)N1CCN(c2ccc(-n3c(=O)ccc4cnc5ccc(-c6cnc7ccccc7c6)cc5c43)cc2C(F)(F)F)CC1	HCT116	cell viability	0.827
CC[C@@H]1C(=O)N(C)c2cnc(Nc3ccc(C(=O)N[C@H]4CC[C@H](N5CCN(CC6CC6)CC5)CC4)cc3OC)nc2N1C(C)C	HCT116	cell viability	0.554
COC(=O)Nc1ccc(-c2nc(N3CCOCC3)c3cnn(C4CCN(Cc5cccnc5)CC4)c3n2)cc1	HCT116	cell viability	0.759
CNC(=O)Nc1ccc(-c2nc(N3CC4CCC(C3)O4)c3cnn(C4CCC5(CC4)OCCO5)c3n2)cc1	HCT116	cell viability	0.805
C[C@@H](Oc1cc(-c2cnn(C3CCNCC3)c2)cnc1N)c1c(Cl)ccc(F)c1Cl	HCT116	cell viability	0.674
O=C(NC1CCNCC1)c1n[nH]cc1NC(=O)c1c(Cl)cccc1Cl	HCT116	cell viability	0.793
